Values compiled from patent US20240368159A1.

TARGET OR SYSTEM: HPK1 protein (Homo sapiens, UniProt Q92918)
Construct: Frozen human PBMC were purchased from Shanghai OribioTech; host or cells: human PBMC
Sequence (Q92918 whole entry): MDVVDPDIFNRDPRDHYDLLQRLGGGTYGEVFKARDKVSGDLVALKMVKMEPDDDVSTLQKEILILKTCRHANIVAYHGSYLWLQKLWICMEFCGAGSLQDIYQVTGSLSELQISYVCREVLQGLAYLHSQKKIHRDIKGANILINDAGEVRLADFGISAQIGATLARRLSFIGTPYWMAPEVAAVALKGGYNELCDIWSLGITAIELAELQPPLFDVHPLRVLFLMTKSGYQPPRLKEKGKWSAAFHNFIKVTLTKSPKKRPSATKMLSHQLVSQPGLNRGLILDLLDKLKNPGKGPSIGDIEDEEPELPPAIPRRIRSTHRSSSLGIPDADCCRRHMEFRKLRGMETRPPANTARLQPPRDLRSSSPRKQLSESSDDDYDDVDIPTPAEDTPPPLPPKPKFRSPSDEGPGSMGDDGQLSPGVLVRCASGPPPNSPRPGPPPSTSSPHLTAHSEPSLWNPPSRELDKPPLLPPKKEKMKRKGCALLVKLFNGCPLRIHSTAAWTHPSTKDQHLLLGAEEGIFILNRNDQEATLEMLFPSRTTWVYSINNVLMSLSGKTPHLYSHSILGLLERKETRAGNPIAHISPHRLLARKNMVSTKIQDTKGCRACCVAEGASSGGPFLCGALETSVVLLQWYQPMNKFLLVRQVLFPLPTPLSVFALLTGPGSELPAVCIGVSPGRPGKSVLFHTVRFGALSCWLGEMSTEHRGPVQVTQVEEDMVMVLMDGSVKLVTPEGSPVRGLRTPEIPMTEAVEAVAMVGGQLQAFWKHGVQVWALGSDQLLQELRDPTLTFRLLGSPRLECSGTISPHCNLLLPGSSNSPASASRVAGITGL
TEST PROTOCOL: HPK1 protein degradation in human PBMC (western blot)
Type: cell-based
REPORTED CONDITIONS: 18 h incubation
Description: HPK1 protein degradation in human PBMC: Frozen human PBMC were purchased from Shanghai OribioTech and recovered with culture medium (RMPI1640) prior to use. The cells were then incubated with a variety of concentrations of compound. After incubation for 18 h, the cells were collected and lysed. The protein concentration was determined by BCA protein assay kit from Thermo (23227). The HPK1 protein level was determined by western blots, using anti-human HPK1 polyclonal antibody from CST (4472S). […]
Each item that follows carries a reported Dmax.
Only the number, expressed in %, is required.

Previously resolved entries follow.
COMPOUND	TARGET OR SYSTEM	MEASUREMENT LABEL	NUMERIC VALUE
CCc1c[nH]c2ncc(-c3cccc(N4CCN(CCCN5CCN(c6ccc7c(N8CCC(=O)NC8=O)cccc7c6)CC5)CC4=O)c3)c(Cl)c12	HPK1 protein (Homo sapiens, UniProt Q92918)	Dmax	74
O=C1CCC(N2C(=O)c3cc(F)c(N4CCN(CCCN5CCN(c6cccc(-c7cnc8[nH]cc(CC(F)F)c8c7Cl)c6)C(=O)C5)CC4)cc3C2=O)C(=O)N1 (centres unmarked)	HPK1 protein (Homo sapiens, UniProt Q92918)	Dmax	90
O=C1CCC(N2C(=O)c3cc(F)c(N4CCC(OCCCN5CCN(c6cccc(-c7cnc8[nH]cc(C9CC9)c8c7Cl)c6)C(=O)C5)CC4)cc3C2=O)C(=O)N1 (centres unmarked)	HPK1 protein (Homo sapiens, UniProt Q92918)	Dmax	88

Q. Recall and state the measured Dmax for CCc1c[nH]c2ncc(-c3cc(N4CCN(C(=O)CN(C)C5CCN(c6cc7c(cc6F)C(=O)N(C6CCC(=O)NC6=O)C7=O)CC5)CC4=O)ccc3F)c(Cl)c12 (centres unmarked) .
A. 30

Q. Recall and state the measured Dmax for O=C1CCC(N2C(=O)c3cc(F)c(N4CCN(CCCS(=O)(=O)N5CCN(c6cccc(-c7cnc8[nH]cc(C9CC9)c8c7Cl)c6)C(=O)C5)CC4)cc3C2=O)C(=O)N1 (centres unmarked) .
A. 95
